Source: patent US6413517B1

molecular target: DRB1*1501 (DR2w2b) (Homo sapiens, UniProt P01903+P01911); construct: expressed in transfected cells; host or cells: transfected fibroblasts L466.1; assay: biochemical; format: binding; settings: Binding Capacity (IC50% nM) DR2w2b
No end group written: not given here.
IC50 by entry:
assay_metric: IC50

- input_sequence: "RVYQEPQVSPPQRAET [Peptide 1136.59.01a]"
  endpoint_value: "> 10000 nM"
- input_sequence: "WLFPRFKFVWVTYASW [Peptide 1136.44.01]"
  endpoint_value: "> 10000 nM"
- input_sequence: "LFHYYFLSEKAPGSTV [Peptide 1136.04]"
  endpoint_value: "1260 nM"
- input_sequence: "GPPTALRSFGFAFGYM [Peptide 1136.29]"
  endpoint_value: "1.1 nM"
- input_sequence: "LWWSTMYLTHHYFVDL [Peptide 1136.46]"
  endpoint_value: "> 10000 nM"
- input_sequence: "QEIDPLSYNYIPVNSN [Peptide 1136.55]"
  endpoint_value: "> 10000 nM"
